Test system: HCC38 (Breast Carcinoma)
protocol-details: combination Emax (second highest fraction inhibited in the dose matrix, 72 h); higher = more inhibition; extreme values may be limits of the assay
readout-type: combination Emax

// worked examples, combination Emax included
compound	combination Emax
CS(=O)(=O)CCNCc1ccc(-c2ccc3ncnc(Nc4ccc(OCc5cccc(F)c5)c(Cl)c4)c3c2)o1 [Lapatinib] + Cn1cnc2c(F)c(Nc3ccc(Br)cc3Cl)c(C(=O)NOCCO)cc21 [Selumetinib] (first compound max 10 µM, 7x7, partner max 10 µM)	0.214
CN(CCO)CC[C@H](CSc1ccccc1)Nc1ccc(S(=O)(=O)NC(=O)c2ccc(N3CCC([C@@H](O)c4ccccc4-c4ccc(Cl)cc4)CC3)cc2)cc1S(=O)(=O)C(F)(F)F [AZD4320] + C[C@@H]1COCCN1C2=NC(=NC(=C2)C3(CC3)[S@](=N)(=O)C)C4=C5C=CNC5=NC=C4 [AZD6738] (first compound max 1 µM, 7x7, partner max 10 µM)	0.933

Could you now consider this next compound?
Ask: Param readout = combination Emax; param system = HCC38 (Breast Carcinoma); param query = CS(=O)(=O)CCNCc1ccc(-c2ccc3ncnc(Nc4ccc(OCc5cccc(F)c5)c(Cl)c4)c3c2)o1 [Lapatinib] + C[C@@H](Oc1cc(-c2cnn(C3CCNCC3)c2)cnc1N)c1c(Cl)ccc(F)c1Cl [Crizotinib] (first compound max 10 µM, 7x7, partner max 10 µM) ; response: value
Result: 0.556
